test: Inhibition of HIV1 (isolate YU2) envelope glycoprotein 120-mediated membrane fusion between virus-transfected african green monkey COS cells and human TZM-bl cells by luciferase-based cell-cell fusion assay in presence of IC9564
MEASUREMENT KIND: IC50 (nM)

COc1ccnc2[nH]cc(C(=O)C(=O)N3CCN(C(=O)c4ccccc4)C[C@H]3C)c12
34.4
